# system: recombinant human LTA4 hydrolase (rhLTA4H) (Homo sapiens)
# Construct: made in house; host or cells: Spodoptera frugiperda (Sf-9) cells, baculovirus (pFastBac1)
# Sequence (P09960 1-611): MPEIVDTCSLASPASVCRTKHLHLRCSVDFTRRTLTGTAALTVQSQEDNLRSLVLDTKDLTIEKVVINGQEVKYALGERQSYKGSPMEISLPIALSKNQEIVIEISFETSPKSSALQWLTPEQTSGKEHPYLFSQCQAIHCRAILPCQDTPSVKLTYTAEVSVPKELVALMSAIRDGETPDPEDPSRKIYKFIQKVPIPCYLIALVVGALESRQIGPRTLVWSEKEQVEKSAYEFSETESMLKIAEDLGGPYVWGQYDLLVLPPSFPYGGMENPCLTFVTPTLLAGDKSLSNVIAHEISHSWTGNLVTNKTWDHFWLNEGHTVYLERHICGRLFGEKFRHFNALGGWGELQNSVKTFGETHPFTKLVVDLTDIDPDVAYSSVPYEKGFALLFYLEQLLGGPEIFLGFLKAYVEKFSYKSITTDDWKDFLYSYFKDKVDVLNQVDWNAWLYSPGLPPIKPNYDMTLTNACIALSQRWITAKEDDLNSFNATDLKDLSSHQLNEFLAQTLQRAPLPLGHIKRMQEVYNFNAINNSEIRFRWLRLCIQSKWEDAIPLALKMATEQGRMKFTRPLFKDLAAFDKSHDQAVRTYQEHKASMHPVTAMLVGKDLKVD
# assay-details: Recombinant human LTA4 hydrolase assay for LTA4 hydrolase inhibitor activity
# Assay type: biochemical
# condition-context: rhLTA4H, LTB4 by immunoassay; single determination or average of two or more; mark after value = form tested: ′ free base, ″ hydrochloride, ^ formate; read-out: IC50
pIC50: −log10 of the molar value. Where a name gives a salt, the structure may show the parent alone.
readout-type: pIC50

Look over these answered cases.
CNC(=O)C1CCN(Cc2c[nH]c3cc(Oc4nc5ccccc5s4)ccc23)CC1 [Example 22]	8.70
O=C(c1coc2cc(Oc3nc4ncccc4s3)ccc12)N1CCN(C2CCCCC2)CC1 [Example 379]	8.00
CC(=O)N[C@H]1C[C@H]2CC[C@@H](C1)N2CCc1coc2cc(Oc3nc4ncccc4s3)ccc12 [Example 131]	8.30
CCN(C(C)=O)C1CCN(Cc2coc3cc(Oc4nc5ncccc5s4)ccc23)CC1 [Example 353]	8.22
O=C(O)C1CCN(Cc2coc3cc(Oc4nc5ncccc5s4)ccc23)CC1 [Example 249]	7.92
c1ccc(CCN2CCN(Cc3coc4cc(Oc5nc6ncccc6s5)ccc34)CC2)cc1 [Example 291, formate]	7.85
CC(=O)N1CCN(Cc2cc3ccc(Oc4nc5ncccc5s4)cc3o2)CC1 [Example 171]	7.23
CCN(CC)Cc1cc2cc(Oc3nc4ncccc4s3)ccc2o1 [Example 329, formate]	7.27

[P] c1ccc2sc(Oc3ccc4cc(CN5CCOCC5)sc4c3)nc2c1 [Example 133]
[Q] c1cnc2nc(Oc3ccc4oc(CN5CC6COCC6C5)cc4c3)sc2c1 (stereo not drawn) [Example 113]
[R] O=C(O)C1CCN(Cc2cc3cc(Oc4nc5ccccc5s4)ccc3o2)CC1 [Example 76]
[S] c1cnc2nc(Oc3ccc4c(CN5C[C@@H]6C[C@H]5CO6)coc4c3)sc2c1 [Example 158]
[T] Cc1cc(CC(=O)NCc2coc3cc(Oc4nc5ncccc5s4)ccc23)on1 [Example 391]
Please list these compounds in decreasing order of pIC50. Quick reminder: the answer is the labels in the order asked. S, R, T, Q, P

[a] O=C(O)CC1CCN(Cc2cc3ccc(Oc4nc5ccccc5s4)cc3o2)CC1 [Example 78, formate]
[b] O=C1CCc2ccccc2N1Cc1coc2cc(Oc3nc4ncccc4s3)ccc12 [Example 397]
[c] C[C@H]1COCCN1Cc1c[nH]c2cc(Oc3nc4ncccc4s3)ccc12 [Example 41]
[d] CC(=O)N1CC2CC(CN(Cc3coc4cc(Oc5nc6ncccc6s5)ccc34)C2)C1 [Example 352]
[e] CCN(CC)C1CCN(Cc2coc3cc(Oc4nc5ncccc5s4)ccc23)C1 (stereo not drawn) [Example 327]
Please produce an ascending ranking of these compounds based on pIC50. # answer = labels listed in requested order a, d, e, b, c

[I] C[C@H]1COCCN1Cc1cc2cc(Oc3nc4ncccc4s3)ccc2o1 [Example 98]
[II] CN(C)C1CCN(Cc2coc3cc(Oc4nc5ncccc5s4)ccc23)CC1 [Example 282, formate]
# query: argmin of pIC50 over I and II Identify your selection by its label. I
(I: 6.82, II: 7.77)

# credit: patent US8399465B2
